pKi: −log10 of the molar value. Structures can show the parent of a compound that is named as a salt.
// endpoint pKi / system Human Polθ polymerase domain (aa1820-2590) (Homo sapiens)

[
  {
    "molecule": "Cc1cc(C(F)(F)F)cc(N2C(=O)C[C@@H]3CN(Cc4cccnc4)c4c(Cl)cccc4N(C)C(=O)[C@H]32)n1 [Example 95]",
    "target.system": "Human Polθ polymerase domain (aa1820-2590) (Homo sapiens)",
    "pKi": 8.43
  },
  {
    "molecule": "Cc1cc(C(F)(F)F)cc(N2C(=O)C[C@@H]3CN(CC4CNCCO4)c4c(Cl)cccc4N(C)C(=O)[C@H]32)n1 (single isomer, unassigned) [Example 109a]",
    "target.system": "Human Polθ polymerase domain (aa1820-2590) (Homo sapiens)",
    "pKi": 8.95
  },
  {
    "molecule": "Cc1cc(C(F)(F)F)cc(N2C(=O)C[C@@H]3CN(CCN4CCN(C)[C@@H](C)C4)c4c(C)cccc4N(C)C(=O)[C@H]32)n1 [Example 46, dihydrochloride]",
    "target.system": "Human Polθ polymerase domain (aa1820-2590) (Homo sapiens)",
    "pKi": 9.29
  },
  {
    "molecule": "Cc1cc(C(F)(F)F)cc(N2C(=O)C[C@@H]3CN(CCN4CCN(C)C[C@@H]4C)c4c(Cl)cccc4N(C)C(=O)[C@H]32)n1 [Example 10, Hydrochloride]",
    "target.system": "Human Polθ polymerase domain (aa1820-2590) (Homo sapiens)",
    "pKi": 8.66
  },
  {
    "molecule": "Cc1cc(C(F)(F)F)cc(N2C(=O)C[C@@H]3CN(Cc4ccc5c(c4)CN(C)C5)c4c(F)cccc4N(C)C(=O)[C@H]32)n1 [Example 123, hydrochloride]",
    "target.system": "Human Polθ polymerase domain (aa1820-2590) (Homo sapiens)",
    "pKi": 8.66
  },
  {
    "molecule": "Cc1cc(C(F)(F)F)cc(N2C(=O)C[C@@H]3CN(C[C@H]4CCNC4)c4c(Cl)cccc4N(C)C(=O)[C@H]32)n1 [Example 100, hydrochloride]",
    "target.system": "Human Polθ polymerase domain (aa1820-2590) (Homo sapiens)",
    "pKi": 8.76
  },
  {
    "molecule": "Cc1cc(C(F)(F)F)cc(N2C(=O)C[C@@H]3CN(CCN4CCN(C)CC4)c4ccccc4N(C)C(=O)[C@H]32)n1 [Example 13, dihydrochloride]",
    "target.system": "Human Polθ polymerase domain (aa1820-2590) (Homo sapiens)",
    "pKi": 7.29
  },
  {
    "molecule": "Cc1cc(C(F)(F)F)cc(N2C(=O)C[C@@H]3CN(Cc4cccnc4)c4c(C)cccc4N(C)C(=O)[C@H]32)n1 [Example 115]",
    "target.system": "Human Polθ polymerase domain (aa1820-2590) (Homo sapiens)",
    "pKi": 8.97
  },
  {
    "molecule": "Cc1cc(C(F)(F)F)cc(N2C(=O)C[C@@H]3CN(CC4CCN(CCO)CC4)c4c(C)cccc4N(C)C(=O)[C@H]32)n1 [Example 88]",
    "target.system": "Human Polθ polymerase domain (aa1820-2590) (Homo sapiens)",
    "pKi": 8.89
  },
  {
    "molecule": "Cc1cc(C(F)(F)F)cc(N2C(=O)C[C@@H]3CN(C[C@@H]4CCN(C)[C@@H](C)C4)c4c(Cl)cccc4N(C)C(=O)[C@H]32)n1 (single isomer, unassigned) [Example 126d]",
    "target.system": "Human Polθ polymerase domain (aa1820-2590) (Homo sapiens)",
    "pKi": 8.83
  },
  {
    "molecule": "Cc1cc(C(F)(F)F)cc(N2C(=O)C[C@@H]3CN(CCN4CCN(C)C[C@H]4CO)c4c(C)cccc4N(C)C(=O)[C@H]32)n1 [Example 64, dihydrochloride]",
    "target.system": "Human Polθ polymerase domain (aa1820-2590) (Homo sapiens)",
    "pKi": 9.09
  },
  {
    "molecule": "Cc1cc(C(F)(F)F)cc(N2C(=O)C[C@@H]3CN(Cc4cn5c(n4)[C@H](C)N(C)CC5)c4c(Cl)cccc4N(C)C(=O)[C@H]32)n1 (racemic) [Example 96b]",
    "target.system": "Human Polθ polymerase domain (aa1820-2590) (Homo sapiens)",
    "pKi": 8.78
  }
]
